# Test system: MDA-MB-435
# Protocol details: Cytotoxicity in human MDA-MB-435 cells assessed as reduction in cell viability incubated for 72 hrs by cell-titer-96 aqueous one solution cell proliferation assay
# Type: functional, cell-based
# Condition label: MDA-MB-435, 72 h
pIC50: −log10 of the molar value.
Examples of compounds with documented pIC50 follow.
Measured endpoint: pIC50

- Structure smiles: "CCCC[C@H]1CCCCC[C@@H](C)c2cc(O)c(c(O)c2)[C@@H](CCCCO)CCCCC[C@@H](C)c2cc(O)c1c(O)c2"
  Measured endpoint: "pIC50"
  Measured result: 5.80
- Structure smiles: "C[C@H]1CCCC[C@H](CCCC(Cl)Cl)c2c(O)cc(cc2O)[C@H](OC(N)=O)[C@@H](C)CCCC[C@H](CCCC(Cl)Cl)c2c(O)cc(cc2O)[C@@H]1O"
  Measured endpoint: "pIC50"
  Measured result: 5.49
- Structure smiles: "C[C@H]1CCCC[C@H](CCCC(Cl)Cl)c2c(O)cc(cc2O)[C@H](OC(N)=O)[C@@H](C)CCCC[C@H](CCCC(Cl)Cl)c2c(O)cc(cc2O)[C@@H]1OC(N)=O"
  Measured endpoint: "pIC50"
  Measured result: 5.62
- Structure smiles: "CCCC[C@H]1CCCCC[C@@H](C)c2cc(O)c(c(O)c2)[C@@H](CCCC)CCCCC[C@@H](C)c2cc(O)c1c(O)c2"
  Measured endpoint: "pIC50"
  Measured result: 5.01
- Structure smiles: "C[C@@H]1CCCCC[C@H](CCCCO)c2c(O)cc(cc2O)[C@H](C)CCCCC[C@H](CCCCO)c2c(O)cc1cc2O"
  Measured endpoint: "pIC50"
  Measured result: 6.05
- Structure smiles: "CCCC[C@H]1CCCC[C@H](C)[C@@H](OC(C)=O)c2cc(O)c(c(O)c2)[C@@H](CCCC)CCCC[C@H](C)[C@@H](OC(C)=O)c2cc(O)c1c(O)c2"
  Measured endpoint: "pIC50"
  Measured result: 4.92
